molecular target: trypsin-activated recombinant human renin (Homo sapiens); test: Renin fluorescence assay (internally quenched peptide substrate); type: biochemical; details: compounds I*
Sequence (P00797 67-406): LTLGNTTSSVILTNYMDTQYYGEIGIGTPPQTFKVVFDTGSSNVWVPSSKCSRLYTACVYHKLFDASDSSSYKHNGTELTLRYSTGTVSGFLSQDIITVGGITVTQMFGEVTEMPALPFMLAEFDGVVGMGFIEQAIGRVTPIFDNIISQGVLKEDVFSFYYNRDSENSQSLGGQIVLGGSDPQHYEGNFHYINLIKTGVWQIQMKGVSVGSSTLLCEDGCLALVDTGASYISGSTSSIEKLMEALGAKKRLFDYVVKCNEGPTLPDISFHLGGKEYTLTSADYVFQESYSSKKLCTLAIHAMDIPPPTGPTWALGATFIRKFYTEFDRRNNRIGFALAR
Property label: IC50

                                    compound                              assay_system  measurement
 0  CNC[C@H](CC1CCCCC1)NC(=O)N1CCC[C@@H]([C@@H](OCCNC(=O)OC)c2cc(F)c(F)c(F)c2)C1 [I*-119a]  trypsin-activated recombinant human renin (Homo sapiens)      < 10 nM
 1  CNC[C@H](CC12CC3CC(CC1C3)C2)NC(=O)N1CCC[C@@H]([C@@H](OCCNC(=O)OC)c2cccc(F)c2)C1 [I*-123a]  trypsin-activated recombinant human renin (Homo sapiens)      < 10 nM
 2  CNC[C@H](CC1CCOCC1)NC(=O)N1CCC[C@@H]([C@@H](OCCNC(=O)OC)c2cc(C)cc(C)c2)C1 [I*-36a]  trypsin-activated recombinant human renin (Homo sapiens)      < 50 nM
 3  CNC[C@H](CC1CCC(F)(F)CC1)NC(=O)N1CCC[C@@H]([C@@H](OCCNC(=O)OC)c2cc(F)cc(Cl)c2)C1 [I*-153a]  trypsin-activated recombinant human renin (Homo sapiens)       < 1 nM
 4  CNC[C@H](CC1CCCCC1)NC(=S)N1CCC[C@@H]([C@@H](OCCNC(=O)OC)c2cccc(Cl)c2)C1 [I*-111a]  trypsin-activated recombinant human renin (Homo sapiens)       < 1 nM
 5  CCNC(=O)CO[C@@H](c1cccc(Cl)c1)[C@@H]1CCCN(C(=O)N[C@H](CNC)C[C@H]2CCCOC2)C1 [I*-30a]  trypsin-activated recombinant human renin (Homo sapiens)      < 20 nM
 6  CN[C@H](C)[C@H](CC1CCCCC1)NC(=O)N1CCC[C@@H]([C@@H](OCCNC(=O)OC)c2cccc(Cl)c2)C1 [I*-82a]  trypsin-activated recombinant human renin (Homo sapiens)       < 1 nM
 7  CNC[C@H](C[C@H]1CCC(C)(C)OC1)NC(=O)N1CCC[C@@H]([C@@H](OCCNC(=O)OC)c2cccc(F)c2)C1 [I*-154a]  trypsin-activated recombinant human renin (Homo sapiens)      < 20 nM
 8  CNC[C@H](CC1CCCCC1)NC(=O)N1CCC[C@@H]([C@@H](OCCNC(=O)OC)c2cc(Cl)ccc2C)C1 [I*-85a]  trypsin-activated recombinant human renin (Homo sapiens)       < 1 nM
 9  CNC[C@H](CC1CCCCC1)NC(=O)N1CCC[C@@H]([C@@H](OCCNC(=O)OC)c2cc(Cl)ccc2F)C1 [I*-117a]  trypsin-activated recombinant human renin (Homo sapiens)       < 1 nM
10  CNC[C@H](CC1CCCCC1)NC(=O)N1CCC[C@@H]([C@H](OCCNC(=O)OC)c2nccs2)C1 [I*-12a]  trypsin-activated recombinant human renin (Homo sapiens)      > 50 nM
11  CNC[C@H](C[C@H]1CCCCOC1)NC(=O)N1CCC[C@@H]([C@@H](OCCNC(=O)OC)c2cc(F)cc(F)c2)C1 [I*-113a]  trypsin-activated recombinant human renin (Homo sapiens)      < 10 nM
12  CNC[C@H](CN1CCCCC1=O)NC(=O)N1CCC[C@@H]([C@@H](OCCNC(=O)OC)c2cccc(F)c2)C1 [I*-46a]  trypsin-activated recombinant human renin (Homo sapiens)      > 50 nM
13  CNC[C@H](CC1CCCCC1)NC(=O)N1CCCC[C@@H]([C@H](OCCNC(=O)OC)c2cccc(Cl)c2)C1 [I*-92a]  trypsin-activated recombinant human renin (Homo sapiens)      > 50 nM
